Target sequence: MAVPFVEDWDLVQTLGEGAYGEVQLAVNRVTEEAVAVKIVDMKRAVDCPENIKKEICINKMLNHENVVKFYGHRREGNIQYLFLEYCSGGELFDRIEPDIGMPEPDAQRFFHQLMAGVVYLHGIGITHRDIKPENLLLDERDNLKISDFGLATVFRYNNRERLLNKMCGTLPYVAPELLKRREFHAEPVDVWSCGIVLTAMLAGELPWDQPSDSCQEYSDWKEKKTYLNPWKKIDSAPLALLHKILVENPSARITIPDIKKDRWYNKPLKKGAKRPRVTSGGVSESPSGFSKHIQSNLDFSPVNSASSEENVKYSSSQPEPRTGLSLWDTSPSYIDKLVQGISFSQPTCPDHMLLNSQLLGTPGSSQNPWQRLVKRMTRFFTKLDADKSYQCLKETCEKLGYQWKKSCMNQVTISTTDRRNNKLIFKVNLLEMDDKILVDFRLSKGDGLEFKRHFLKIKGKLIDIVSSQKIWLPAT
pIC50: −log10 of the molar value.
assay_endpoint: pIC50

compound_smiles: COc1cc(F)cc(OC[C@H]2CCCN2)c1-c1cc(Nc2cnc(C#N)cn2)n[nH]1
pIC50: 8.91

1: N#Cc1cnc(Nc2cc(-c3c(F)cccc3OC[C@H]3CCNC3)[nH]n2)cn1
2: COc1cc(C(F)(F)F)cc(OC[C@H]2CCCNC2)c1-c1cc(Nc2cnc(C#N)cn2)n[nH]1
3: COc1cc(F)cc(OC[C@H]2CCCNC2)c1-c1cc(Nc2cnc(C#N)cn2)n[nH]1
Ask | In this exercise, place the 3 molecules in ascending sequence of their recorded pIC50. Form field (ranking): labels in requested order.
Reply | 2, 1, 3
(2: 8.80, 1: 9.07, 3: 9.28)
